In this section, each of the binders is paired with its reported MC5R IC50.
Target: human recombinant MC5R (CHO-K1/Ga15 stable cell line, GenScript) (human, UniProt P33032 1-325)
Sequence (P33032 whole entry): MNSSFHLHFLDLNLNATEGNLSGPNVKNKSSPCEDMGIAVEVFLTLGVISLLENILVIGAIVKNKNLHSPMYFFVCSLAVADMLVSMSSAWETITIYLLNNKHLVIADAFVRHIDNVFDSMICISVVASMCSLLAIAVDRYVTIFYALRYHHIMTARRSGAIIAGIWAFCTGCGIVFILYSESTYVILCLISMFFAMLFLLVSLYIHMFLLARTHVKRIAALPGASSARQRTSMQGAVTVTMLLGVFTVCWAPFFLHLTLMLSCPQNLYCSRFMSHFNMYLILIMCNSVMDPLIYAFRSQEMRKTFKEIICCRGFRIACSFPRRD
Experiment: cell-based or functional assay
Positions of bridges follow the written chain, without caps; N, C: chain ends. Non-standard residues stand in square brackets, D forms with d. *: point of attachment. dPhe(4-CF3) = N[C@H](Cc1ccc(C(F)(F)F)cc1)C(=O)O; Trp(1-Me) = Cn1cc(C[C@H](N)C(=O)O)c2ccccc21; Benzoyl(3,5-(OH)2) = O=C(c1cc(O)cc(O)c1)*; NMeW = CN[C@@H](Cc1c[nH]c2ccccc12)C(=O)O; Lys(N3) = [N-]=[N+]=NCCCC[C@H](N)C(=O)O; Phe(4-NH2) = Nc1ccc(C[C@H](N)C(=O)O)cc1; Orn(N3) = [N-]=[N+]=NCCC[C@H](N)C(=O)O; dPhe(4-F) = N[C@H](Cc1ccc(F)cc1)C(=O)O; NMeH = CN[C@@H](Cc1c[nH]cn1)C(=O)O; NMeR = CN[C@@H](CCCNC(=N)N)C(=O)O; dNMeF = CN[C@H](Cc1ccccc1)C(=O)O; hArg = N=C(N)NCCCC[C@H](N)C(=O)O; Hpra = C#CCC[C@H](N)C(=O)O; Nle = CCCC[C@H](N)C(=O)O; Pra = C#CC[C@H](N)C(=O)O
Readout Kind: MC5R IC50 (nM)

Binder: Ac-[Nle][Lys(N3)]H[dF]RW[Pra]-NH2 (bridge 2-7; not fully specified (bridges); printed as Ac-Nle-[Lys(N3)-His-DPhe-Arg-Trp-Pra]-NH2) [KR-009]
Readout Kind: MC5R IC50
Display Unit: nM
Readout Relation: =
Meas Value: 140

Binder: Ac-SYSMEH[dNMeF]RWGKPV-NH2 [KR-025]
Readout Kind: MC5R IC50
Display Unit: nM
Readout Relation: =
Meas Value: 1080

Binder: Ac-[Nle][Lys(N3)]H[dF][hArg]W[Pra]K-NH2 (triazole 2-7; not fully specified; printed as Ac-Nle-[Lys(N3)-His-DPhe-HArg-Trp-Pra]-Lys-NH2) [KR-054]
Readout Kind: MC5R IC50
Display Unit: nM
Readout Relation: =
Meas Value: 82.3

Binder: Ac-[Nle][Lys(N3)][Phe(4-NH2)][dF]RW[Pra]-NH2 (triazole 2-7) [KR-047]
Readout Kind: MC5R IC50
Display Unit: nM
Readout Relation: =
Meas Value: 41.9

Binder: Ac-SMEHFRWGKPV-NH2 [KR-002]
Readout Kind: MC5R IC50
Display Unit: nM
Readout Relation: =
Meas Value: 243

Binder: {Benzoyl(3,5-(OH)2)}-[Nle][Lys(N3)]H[dPhe(4-F)]RW[Pra]-NH2 (triazole 2-7; not fully specified; printed as HyBA-Nle-[Lys(N3)-His-Dphe(4-F)-Arg-Trp-Pra]-NH2) [KR-072]
Readout Kind: MC5R IC50
Display Unit: nM
Readout Relation: =
Meas Value: 78

Binder: Ac-EHFRWGKP-NH2 [KR-007]
Readout Kind: MC5R IC50
Display Unit: nM
Readout Relation: >
Meas Value: 10000

Binder: Ac-[Nle][Lys(N3)]H[dPhe(4-F)]RW[Pra]-NH2 (triazole 2-7) [KR-049]
Readout Kind: MC5R IC50
Display Unit: nM
Readout Relation: =
Meas Value: 25.2

Binder: Ac-[Nle][Orn(N3)]H[dF]RW[Pra]K-NH2 (triazole 2-7; not fully specified; printed as Ac-Nle-[Orn(N3)-His-DPhe-Arg-Trp-Pra]-Lys-NH2) [KR-065]
Readout Kind: MC5R IC50
Display Unit: nM
Readout Relation: =
Meas Value: 70.2

Binder: Ac-MEHFRWGKPV-NH2 [KR-003]
Readout Kind: MC5R IC50
Display Unit: nM
Readout Relation: =
Meas Value: 315

Binder: Ac-[Nle][Lys(N3)]H[dF]R[Trp(1-Me)][Pra]K-NH2 (triazole 2-7; not fully specified; printed as Ac-Nle-[Lys(N3)-His-DPhe-Arg-Trp(Me)-Pra]-Lys-NH2) [KR-060]
Readout Kind: MC5R IC50
Display Unit: nM
Readout Relation: =
Meas Value: 319

Binder: Ac-[Nle]EHFRWGKC-NH2 (not fully specified (bridges); printed as -Cyclo(-Ac-Nle-Glu-His-Phe-Arg-Trp-Gly-Lys-Cys)-NH2; also: cyclo(...) including Ac, ring type and places not given here) [KR-036]
Readout Kind: MC5R IC50
Display Unit: nM
Readout Relation: =
Meas Value: 289

Binder: Ac-[Nle][Lys(N3)]H[dPhe(4-CF3)]RW[Pra]-NH2 (triazole 2-7) [KR-048]
Readout Kind: MC5R IC50
Display Unit: nM
Readout Relation: =
Meas Value: 48.8

Binder: Ac-[Nle][Lys(N3)]H[dF]RW[Hpra]K-NH2 (triazole 2-7; not fully specified; printed as Ac-Nle-[Lys(N3)-His-DPhe-Arg-Trp-HPra]-Lys-NH2) [KR-066]
Readout Kind: MC5R IC50
Display Unit: nM
Readout Relation: =
Meas Value: 64

Binder: Ac-[Nle][Lys(N3)][NMeH][dF]R[NMeW][Pra]-NH2 (triazole 2-7) [KR-051]
Readout Kind: MC5R IC50
Display Unit: nM
Readout Relation: =
Meas Value: 98.9

Binder: Ac-[Nle][Lys(N3)]H[dF]RW[Pra]N-NH2 (triazole 2-7; not fully specified; printed as Ac-Nle-[Lys(N3)-His-DPhe-Arg-Trp-Pra]-Asn-NH2) [KR-056]
Readout Kind: MC5R IC50
Display Unit: nM
Readout Relation: =
Meas Value: 69.6

Binder: Ac-[Nle][Lys(N3)]H[dF][NMeR]W[Pra]-NH2 (triazole 2-7) [KR-045]
Readout Kind: MC5R IC50
Display Unit: nM
Readout Relation: =
Meas Value: 191

Binder: Ac-[Nle][Lys(N3)][NMeH][dF][NMeR]W[Pra]-NH2 (triazole 2-7; not fully specified) [KR-052]
Readout Kind: MC5R IC50
Display Unit: nM
Readout Relation: =
Meas Value: 195
